assay target: T1, DMC1 ΔN (amino-acids 83-340), purified (human, UniProt Q14565 83-340, amine reactive fluorescent dye (Monolith Protein Labelling Kit BLUE-NHS) in the MST only)
T1 construct: human DMC1 with its N-terminal domain deleted, amino acids 83-340; Octameric ring in the crystal and in solution; also called DMC1 core; structural core of human DMC1; source: E. coli BL21 (DE3), purified (Ni-NTA, HiTrap Q, TEV cleavage, HiTrap Q, SEC)
T1 sequence (looked up): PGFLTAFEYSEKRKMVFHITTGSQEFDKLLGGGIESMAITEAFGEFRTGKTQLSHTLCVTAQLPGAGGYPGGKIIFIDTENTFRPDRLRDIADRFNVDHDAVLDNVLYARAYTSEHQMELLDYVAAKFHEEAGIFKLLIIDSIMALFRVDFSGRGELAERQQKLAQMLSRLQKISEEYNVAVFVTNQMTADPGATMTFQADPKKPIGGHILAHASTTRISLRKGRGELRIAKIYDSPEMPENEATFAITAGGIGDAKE
protocol text: MST; DMC1 ΔN or loop mutant labelled with BLUE-NHS dye, constant at 150 nM; peptide titrated in 1:1 dilutions starting from 750 µM; 10 mM HEPES pH 8.0, 150 mM NaCl, 0.05 % Tween-20; room temperature (~22 °C); affinities derived from initial fluorescence
recorded conditions: both partners purified
measurement type: pKd
Here pKd is given on a logarithmic scale as minus log10 of the concentration in mol/L.

# query: pKd of entry RPTKVFVPPFKTKS (human BRCA2 Ex14 truncated, amino acids 2401-2414; also called truncated Ex14; source: synthetic peptide (Severn Biotech)) [BRCA2 Ex14-Tr peptide (amino acids 2401-2414)]
4.44
